Listing of entries alongside the reported TGI.
# Test system: NCI-H226 lung
# ASSAY_TEXT: NCI tumour cell line growth inhibition, 48 h
Give the value in µM but do not write µM after it.

See these solved cases before continuing.
CC(=O)OCc1c(O)c2c(c(O)c1COC(C)=O)C(=O)C=CC2=O    32.5
C=C1c2nc3ccccc3n2C=C(c2ccc(Cl)cc2)N1c1ccc(OC)cc1    15.6
O=C(O)[C@@H](Cc1ccc2ccccc2c1)NC(=O)n1c2ccccc2c2ccccc21    9.32
O=c1oc2ccc(I)cc2c(=O)n1-c1ccc(Cl)cc1F    8.53

I would be grateful if you could share the reported TGI for O=C(N/N=C/c1cccc(F)c1)c1ccncc1 .
3.78

Continue with O=c1c(F)cn(Cc2ccccc2CCl)c(=O)n1Cc1ccccc1CCl
2.71

Same again, this time with N#Cc1c(-c2ccccc2)cc(-c2ccc(Cl)cc2)[nH]c1=S
80.5

Next entry: COc1ccc(C(=O)c2ccc([As]=O)cc2)cc1 (configuration not stated)
0.459

O=C(/C=C/c1ccccc1)c1ccc(NCc2nc3ccccc3[nH]2)cc1 ?
16.8

How about this compound: Cc1cnc2c(c1)C(=O)C1=C(C2=O)C2OC(=O)CC2OC1(C)C (configuration not stated)
2.31

Check CCCCn1c(-c2ccc([N+](=O)[O-])cc2)cs/c1=N/N=C1\C(=O)Nc2ccc(Br)cc21 too.
38.3
